System: KRAS-mutant PDC complex spheroid viability;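 further: viability read after seven days of compound exposure; 100% = DMSO vehicle-treated spheroids so lower means less viable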
ASSAY NAME: Anticancer human tumor 186277-243-T-J2-PDC patient-derived colon adenocarcinoma cell line growth inhibition [KRAS2]
APPLIED CONDITIONS: second compound 0.1 µM; first compound 0.00316 µM; hits give low values
READOUT NAME: viability, T/C (%)

compound="CC(C)n1nc(-c2ccc3oc(N)nc3c2)c2c(N)ncnc21 + CC1OCC2(CCN(c3cnc(Sc4ccnc(N)c4Cl)c(N)n3)CC2)C1N" readout_name="viability, T/C" test_value=85.8
compound="Cn1ncnc1[C@H]1c2n[nH]c(=O)c3cc(F)cc(c23)N[C@@H]1c1ccc(F)cc1 + C=CC(=O)N1CCN(c2nc(OCC3CCCN3C)nc3c2CCN(c2cccc4cccc(C)c24)C3)CC1CC#N" readout_name="viability, T/C" test_value=110
compound="CN(C)C/C=C/C(=O)Nc1cc2c(Nc3ccc(F)c(Cl)c3)ncnc2cc1O[C@H]1CCOC1 + COc1cc2nc(C)nc(NC(C)c3cc(N)cc(C(F)(F)F)c3)c2cc1OC1CCOC1" readout_name="viability, T/C" test_value=112
compound="Cn1ncnc1[C@H]1c2n[nH]c(=O)c3cc(F)cc(c23)N[C@@H]1c1ccc(F)cc1 + C=CC(=O)N1CCN(c2nc(=O)n(-c3c(C)ccnc3C(C)C)c3nc(-c4c(O)cccc4F)c(F)cc23)C(C)C1" readout_name="viability, T/C" test_value=111
compound="CCN1CCN(Cc2ccc(Nc3ncc(F)c(-c4cc(F)c5nc(C)n(C(C)C)c5c4)n3)nc2)CC1 + COc1cc2nc(C)nc(NC(C)c3cc(N)cc(C(F)(F)F)c3)c2cc1OC1CCOC1" readout_name="viability, T/C" test_value=97.9
compound="CC(C)n1nc(-c2ccc3oc(N)nc3c2)c2c(N)ncnc21 + C=CC(=O)N1CCN(c2nc(=O)n(-c3c(C)ccnc3C(C)C)c3nc(-c4c(O)cccc4F)c(F)cc23)C(C)C1" readout_name="viability, T/C" test_value=86.1
compound="CC(C)n1nc(-c2ccc3oc(N)nc3c2)c2c(N)ncnc21 + COc1cc2nc(C)nc(NC(C)c3cc(N)cc(C(F)(F)F)c3)c2cc1OC1CCOC1" readout_name="viability, T/C" test_value=64.8
compound="Cn1ncnc1[C@H]1c2n[nH]c(=O)c3cc(F)cc(c23)N[C@@H]1c1ccc(F)cc1 + CNCc1ccccc1-c1csc(C(C)Nc2nc(C)nc3cc(OC)c(OC)cc23)c1" readout_name="viability, T/C" test_value=109
compound="Cn1ncnc1[C@H]1c2n[nH]c(=O)c3cc(F)cc(c23)N[C@@H]1c1ccc(F)cc1 + CC1OCC2(CCN(c3cnc(Sc4ccnc(N)c4Cl)c(N)n3)CC2)C1N" readout_name="viability, T/C" test_value=110
compound="CC(C)n1nc(-c2ccc3oc(N)nc3c2)c2c(N)ncnc21 + C=CC(=O)N1CCN(c2nc(OCC3CCCN3C)nc3c2CCN(c2cccc4cccc(C)c24)C3)CC1CC#N" readout_name="viability, T/C" test_value=77.8
compound="CC(=O)Nc1cccc(-n2c(=O)n(C3CC3)c(=O)c3c(Nc4ccc(I)cc4F)n(C)c(=O)c(C)c32)c1 + C=CC(=O)N1CCN(c2nc(=O)n(-c3c(C)ccnc3C(C)C)c3nc(-c4c(O)cccc4F)c(F)cc23)C(C)C1" readout_name="viability, T/C" test_value=8.67

Numbers sourced from PubChem BioAssay AID1963875.
